- System: UACC-257 melanoma
- Experimental Protocol: NCI-60 one-dose screen, 48 h
- Reported Conditions: 10 µM unless noted
Compounds without any hit were thinned out: in the full panel of roughly 83,000, 20% have a hit. The source made the active and inactive calls. How the source made its calls: active means growth percent below 10; inactive means the rest.
Outcomes: yes for active, no for inactive

Cc1ccc(-c2cn3cc([N+](=O)[O-])ccc3n2)cc1; no
CCOc1cccc(Nc2nc(N)nc3[nH]c4ccc(O)cc4c23)c1; no
COc1ccc(/C=C/C(=O)c2ccc(Oc3ncnc4ccccc34)cc2)cc1OC; no
COc1ccc2c(c1)OC(N)=C(C#N)C2c1ccc(F)c(F)c1 (stereo not given); no
CCCCC(=O)Nc1nc2ccc(SCCC)cc2s1; no
O=C(NCCNc1nccc(-c2c(-c3cccc(O)c3)nc3sccn23)n1)c1ccccc1; no
COc1cc(NC(=O)C#Cc2ccccc2)c(OC)cc1Cl; no
CC(C)(C)NC(C1=CC(C)(C)c2ccccc2C1=O)c1ccccc1 (stereo not given); yes
O=C(Nc1cccc(-n2ccc3c(NC(=O)c4ccccc4)nccc32)c1)Nc1cc(C(F)(F)F)cc(C(F)(F)F)c1; no
C=C1C(=O)O[C@H]2[C@H]1CC/C(COC(=O)c1ccccc1)=C\CC[C@@]1(C)O[C@@H]21; no

---

- System: SK-MEL-5 melanoma
- Experimental Protocol: NCI-60 one-dose screen, 48 h (100 = growth as untreated, 0 = no growth, -100 = all killed)
- Reported Conditions: 10 µM unless noted
This is part of a sample that, as a whole, favours compounds with a hit. Of some 83,000 tested, about 20% had one in any assay.
Outcome Measure: growth (%)

CC[C@H]1[C@@H]2C=C[C@@H]3[C@H]4C/C=C\C(=O)NCCC[C@@H]5NC(=O)/C(=C(O)/C=C/[C@@H]4C[C@@H]3[C@H]2C[C@H]1C)C5=O; -70.4
O=C(Nc1cccc([N+](=O)[O-])c1)c1ccc2ccccc2c1O; 19.5
COc1ccc(/C(=C/c2cc(OC)c(OC)c(OC)c2)[N+](=O)[O-])cc1; 70.7
Cc1ccc2[nH]c3nc4cccnc4c(C)c3c2c1; 95.2
Cc1c(NC(=O)c2sc3nc4c(cc3c2N)CN(Cc2ccccc2)CC4)cccc1C(F)(F)F; 41.9

---

- System: A498 renal
- Experimental Protocol: NCI-60 one-dose screen, 48 h (100 = growth as untreated, 0 = no growth, -100 = all killed)
- Reported Conditions: 10 µM unless noted
Compounds without any hit were thinned out: in the full panel of roughly 83,000, 20% have a hit. Activity calls are given as the source filed them. How the source made its calls: active means growth percent below 10; inactive means the rest.
Outcome Measure: growth

Cc1cccc(NCS(=O)(=O)O)c1; 111% (inactive)
CCN(CC)CCNCC(O)Cc1ccc(OC)cc1 (stereo not given); 109% (inactive)
O=C(Nc1ccc(-n2ccc3c(NC(=O)c4ccccc4)nccc32)cc1)Nc1ccc(Cl)c(Cl)c1; 68.2% (inactive)
Nc1nc2ccc(CNc3ccc(C(=O)NC(CC(=O)O)C(=O)O)cc3)cc2c(=O)[nH]1 (stereo not given); 93.1% (inactive)
CCCN1C(=O)CSC1=Nc1ccc2cc3ccc(N=C4SCC(=O)N4CCC)cc3nc2c1; 63.4% (inactive)
COc1ccccc1P(c1ccccc1OC)c1ccccc1OC; 79.4% (inactive)
NC(N)=N/N=C/c1ccc([N+](=O)[O-])cc1; 79.7% (inactive)
CC1OC(n2c3ccccc3c3c4c(c5c6ccccc6[nH]c5c32)C(=O)N(CCN[C@@H]2CCC[C@H]2N)C4=O)CC(O)C1O (stereo not given in full); 48.3% (inactive)
CCC(C)Nc1ccc(N)cc1 (stereo not given); 91.9% (inactive)
O=C(Nc1ccc(-n2cc(-c3ccncc3)c(-c3ccc(O)c(Cl)c3)n2)cc1)c1ccc(Cl)c(Cl)c1; 79.6% (inactive)

---

- System: OVCAR-3 ovarian
- Experimental Protocol: NCI-60 one-dose screen, 48 h
- Reported Conditions: 10 µM unless noted
About 83,000 compounds went through this panel and 20% of them were active in at least one assay; those are over-represented in the sample as a whole. The source made the active and inactive calls. The calls were made as follows: active = growth percent below 10; inactive = the rest.
Outcomes: True for active, False for inactive

Cc1c(F)cccc1NC(=O)c1sc2nc3c(cc2c1N)CCCCC3; False
CCc1c(C)c2cc3c(c(C)c2oc1=O)OCC(=O)N3; False
CC1(C)N=C(N)N=C(N)N1c1ccc(F)c(C(F)(F)F)c1; False
O=C(NOC1OC(CO)C(O)C(O)C1O)Nc1ccccc1 (centres undefined); False
O=C(O)c1ccccc1C(=O)c1ccc(I)cc1; False
Cc1cc(O[C@@H]2O[C@@H](C)[C@H](O)[C@@H](O)[C@H]2O)c2c3c(c(O[C@@H]4O[C@@H](C)[C@H](O)[C@@H](O)[C@H]4O)cc2c1)C(=O)c1c(O)cccc1C3=O; False
CN1CCN(CC(=O)N(C)c2ccc(N=C(c3ccccc3)c3c(O)[nH]c4ccc(C#N)cc34)cc2)CC1; False
O=C(Nc1ccc(-n2ccc3c(NC(=O)c4ccccc4)ncnc32)cc1)c1ccc(Cl)c(C(F)(F)F)c1; True
COc1cc(C(=O)NNC(=O)c2ccccc2O)cc(OC)c1OC; False

---

- System: HCC-2998 colon
- Experimental Protocol: NCI-60 one-dose screen, 48 h (100 = growth as untreated, 0 = no growth, -100 = all killed)
- Reported Conditions: 10 µM unless noted
This is part of a sample that, as a whole, favours compounds with a hit. Of some 83,000 tested, about 20% had one in any assay.
Measured growth, listed per entry.
Outcome Measure: growth (%)

CCc1cccc(C)c1NC(=O)c1sc2nc3c(cc2c1N)CCCCC3; 54.7
CC[C@H]1[C@@H]2C=C[C@@H]3[C@H]4C/C=C\C(=O)NCCC[C@@H]5NC(=O)/C(=C(O)/C=C/[C@@H]4C[C@@H]3[C@H]2C[C@H]1C)C5=O; 52.8
O=C(O)c1ccc(-n2cc(/C=N/Nc3ccc(Cl)cc3)c(-c3ccc(F)c(F)c3)n2)cc1; 82.6
Fc1ccc(/C=N/n2c(-c3cc(Cl)cc(Cl)c3Cl)nn(CNc3ccc(Cl)nn3)c2=S)cc1; 107

---

- Tested on: PC-3 prostate
- Experimental Protocol: NCI-60 one-dose screen, 48 h (100 = growth as untreated, 0 = no growth, -100 = all killed)
- Reported Conditions: 10 µM unless noted
Compounds without any hit were thinned out: in the full panel of roughly 83,000, 20% have a hit.
I would appreciate it if you labelled entries class 1 when growth is 70% or higher, otherwise class 0.

COc1ccc(Cl)cc1NC(=O)c1cc2c([nH]1)-c1nc(NC(=O)C(C)(C)C)sc1CC2; class 0
COc1ccc(CNc2nc3ccccc3c3c(=O)c4ccccc4sc23)cc1OC; class 1
COc1ccc(/C=C/C(=O)/C=C(/C=C/c2ccc(OC)c(OC)c2OC)OB(F)F)c(OC)c1OC; class 0
COc1ccc(-c2cnc(-c3ccc(F)cc3)[nH]2)cc1; class 1
CC(=O)c1cc2c(N)c(C(=O)Nc3cccc(Cl)c3)sc2nc1C; class 1

---

- Test system: SK-OV-3 ovarian
- Experimental Protocol: NCI-60 one-dose screen, 48 h (100 = growth as untreated, 0 = no growth, -100 = all killed)
- Reported Conditions: 10 µM unless noted
About 83,000 compounds went through this panel and 20% of them were active in at least one assay; those are over-represented in the sample as a whole.
Listed next: entries and their corresponding growth.
Outcome Measure: growth (%)

Cc1cn(C2CC(N=[N+]=[N-])C(COP(=O)(O)OP(=O)(O)OP(=O)(O)O)O2)c(=O)[nH]c1=O (stereo not given); 104
CC(=O)N1N=C(CCC(=O)c2nc3ccc([N+](=O)[O-])cc3[nH]2)OC1c1ccc(O)cc1 (stereo not given); 75.3
Nc1nccc2c1ccn2-c1ccc(NC(=O)c2ccc(N3CCOCC3)c(C(F)(F)F)c2)cc1; 48.4
COc1cc(/C=C/C(=O)N2CCC=CC2=O)cc(OC)c1OC; 105
COc1ccccc1N1CCN(CC(O)COc2c(Br)c(Br)c(Br)c3c2OC(C)(C)C3)CC1 (stereo not given); 84.2

---

- Test system: HT29 colon
- Experimental Protocol: NCI-60 one-dose screen, 48 h
- Reported Conditions: 10 µM unless noted
The panel holds about 83,000 compounds, 20% with a hit somewhere; the sample as a whole holds those more often. Calls of active or inactive are those of the source. How the source made its calls: active means growth percent below 10; inactive means the rest.
Classes used: True (active), False (inactive)

COc1ccc2c(c1)C(=O)/C(=C/c1cccc(OCC(=O)c3ccccc3)c1)O2; True
Cc1ccn2cc(Cc3cc(=O)oc4c3ccc3ccccc34)c(=O)nc2c1; False
CCOC(=O)c1cnc2c(OC)ccc(OC)c2c1Cl; False
CNCCCOc1c(Br)cc(CCNC(=O)/C(Cc2cc(Br)c(OC)c(Br)c2)=N/O)cc1Br; True
CCc1cccc(C)c1NC(=O)c1sc2nc3c(cc2c1N)CCCCC3; True
Nc1ncc(-c2ccc3ncnc(Nc4ccc(F)c(Cl)c4)c3c2)cn1; False
CS(=O)(=O)Nc1cccc(-c2ccc3ncnc(Nc4cncc(Cl)c4)c3c2)c1; True
CCN1CCN(Cc2ccc(NC(=O)Nc3cccc(-n4ccc5c(NC(=O)c6ccccc6)nccc54)c3)cc2C(F)(F)F)CC1; False
O=[N+]([O-])c1cccc(C(c2ccccc2)c2ccccc2)c1; False
C/C(=N\N=C1/SCC(=O)N1c1ccccc1)c1ccco1; False
O=C(O)c1ccccc1C(=O)c1ccc(I)cc1; False
Cc1[nH]c2ccc(F)cc2c1CCNC(=O)C1CCN(C(=O)c2ccc(-c3ccccc3)cc2)CC1; True
Cc1ccc(Cn2cc(COc3ccc4c5ccnc(C)c5n(CCCc5ccccc5)c4c3)nn2)cc1; False
COc1ccccc1N1CCN(CCCOc2ccc(OCCCN3CCN(c4ccccc4OC)CC3)c(C(=O)c3cc(OC)c(OC)c(OC)c3)c2)CC1; False
CCC1S/C(=N\N=C(/C)c2cccs2)N(c2ccccc2)C1=O (stereo not given); False
Nc1ncnc2c1c(-c1ccc(Oc3ccccc3)cc1)nn2C[C@@H]1SSC[C@H]1O; False
O=C(NCCNc1nccc(-c2c(-c3cccc(O)c3)nc3sccn23)n1)c1cccc(C(F)(F)F)c1; False
Oc1ccc(O)c(-[n+]2ccccc2)c1; False
CC(=O)n1cc(/C=C2\N=C(c3ccc(Cl)cc3)N(c3ccc(S(=O)(=O)Nc4nccs4)cc3)C2=O)c2ccccc21; False
COc1ccc(OC)c(NCC(=O)n2nc(/C=C\c3ccc(O)c(OC)c3)cc2/C=C\c2ccc(O)c(OC)c2)c1; True
